# System: NCI
# assay.comment: Cytotoxicity on human cells, NCI (lung)
# Type: cell-based
# details: exposed 24 h and 48 h, 0.1 to 25 μM
# pIC50 values compiled below
// scale note: pIC50 = -log10(conc_M); give the bare number

Tell me the measured pIC50 of `Oc1ccc(-c2ncc3ncc(-c4cccc(O)c4)cc3n2)cc1` , please.
4.70

For the next question, use this compound.
# get_value(readout='pIC50', item= `OCCNc1nc(NCc2ccccc2)c2ncc(Nc3cnc4ccccc4c3)cc2n1` )
5.70

====

property.measured: melting point

Record request: melting point value, item `COCOc1ccc(-c2ncc3ccc(-c4csc(CN5CCN(C)CC5)c4)nc3n2)cc1`
> 268 °C

Another molecule to look at: `Oc1ccc(Nc2ncc3ncc(-c4ccccc4O)cc3n2)cc1`
262 to 264 °C

Moving on to the next molecule: `COc1cccc(-c2nc(-c3ccccc3)c3ncc(-c4ccc(C(C)=O)cc4)cc3n2)c1`
133 to 134 °C

Field entry: `Oc1ccc(-c2ncc3ncc(Nc4ccon4)cc3n2)cc1`
> 268 °C

Similarly, `Oc1ccccc1-c1ncc2ncc(Cl)cc2n1` ?
211 to 212 °C

Another: `O=C(Nc1cnc2cnc(-c3ccc(O)cc3)nc2c1)c1ccncc1`
230 to 232 °C

Next up: `COc1cccc(Nc2cnc3c(NCc4ccccc4)nc(NCCO)nc3c2)c1`
110 to 111 °C

Moving on to `O=C1CCCN1c1cnc2cnc(-c3ccc(O)cc3)nc2c1`
> 268 °C

# repeat for `O=C1CCCCN1c1cnc2cnc(-c3ccc(O)cc3)nc2c1`
268 to 270 °C

Same question, `COc1cccc(-c2nc(-c3ccccc3)c3ncc(-c4cccnc4)cc3n2)c1` this time
134 to 135 °C

Further cases:
Data request, read-out melting point, for `Oc1cccc(-c2ncc3ncc(Cl)cc3n2)c1`
252 to 253 °C

Also check `COc1cccc(-c2nc(-c3ccccc3)c3ncc(-c4ccco4)cc3n2)c1`
131 to 132 °C

Follow-up entry: `Oc1ccc(-c2ncc3ncc(Nc4nc5ccccc5s4)cc3n2)cc1`
> 268 °C

====

Quick reference: pIC50 of the listed items.
# Tested on: fibroblast
# assay.comment: Cytotoxicity on human cells, fibroblast
# Type: cell-based
# details: exposed 24 h and 48 h, 0.1 to 25 μM
Scale explanation: pIC50 corresponds to minus log10 of a concentration expressed in moles per litre.

For `Oc1ccc(Nc2ncc3ncc(-c4ccccc4O)cc3n2)cc1` , what is its reported pIC50?
5.30

Others:
What value of pIC50 has been recorded for this entry: `Cc1ncccc1Nc1cnc2cnc(-c3ccc(O)cc3)nc2c1`
5.00

Next up: `COc1ccc(Nc2cnc3cnc(-c4ccc(O)cc4)nc3c2)cc1`
5.00

Next compound up: `Oc1ccc(-c2ncc3ncc(-c4ccoc4)cc3n2)cc1`
4.70

Can you handle `Oc1ccc(-c2ncc3ncc(-c4ccco4)cc3n2)cc1` next?
5.22

====

# Tested on: NCI
# assay.comment: Cytotoxicity on human cells, NCI (lung)
# Assay type: cell-based
# details: exposed 24 h and 48 h, 0.1 to 25 μM
In this section we review reported pIC50 values for a set of compounds.
Just the number, please; pIC50 means minus log10 of the concentration in mol/L.

Example results:
For the compound shown here, COc1ccc(Nc2cnc3cnc(-c4ccc(O)cc4)nc3c2)cc1 [Compound 51] , give the reported pIC50.
5.00

Same lookup for N#Cc1ccc(Nc2cnc3cnc(-c4ccc(O)cc4)nc3c2)nc1 [Compound 54] , please.
4.70

Continue with Oc1ccc(Nc2ncc3ncc(Cl)cc3n2)cc1 [Compound 59]
5.00

Proceeding to the next compound to report its pIC50.
If you can, please state the reported pIC50 value of COc1ccc(-c2cnc3cnc(-c4ccc(O)cc4)nc3c2)cn1 [Compound 32] .
4.60
